// values below are reported Activity
# SYSTEM: UDP-N-acetylglucosamine 1-carboxyvinyltransferase (Escherichia coli K-12)
# EXPERIMENT SUMMARY: Inhibition of recombinant Escherichia coli MurA assessed as residual activity at 500 uM using UDP-N-acetylglucosamine as substrate and measured by malachite green based colorimetric assay relative to control
# output: bare number, implied unit %

Recorded Activity, per entry:
>  <SAMPLE SMILES>
CC(C)(C)c1csc(N)n1

>  <UNIT NAME>
%

>  <Activity>
5.7

$$$$
>  <SAMPLE SMILES>
Nc1nccs1

>  <UNIT NAME>
%

>  <Activity>
88

$$$$
>  <SAMPLE SMILES>
O=C(O)c1scnc1Br

>  <UNIT NAME>
%

>  <Activity>
99.5

$$$$

# input for lookup
Data request, read-out Activity, for CCOC(=O)c1sc(Br)nc1C
19.5

----------
# SYSTEM: D-alanine--D-alanine ligase B (Escherichia coli K-12)
# EXPERIMENT SUMMARY: Inhibition of recombinant Escherichia coli DdlB assessed as residual activity at 500 uM using D-alanine as substrate incubated for 20 mins and measured by malachite green based colorimetric assay relative to control
// values below are reported Activity
# output: bare number, implied unit %

Data request, read-out Activity, for O=S(=O)(Cc1ccccc1)Nc1nccs1
93

Data request, read-out Activity, for COC(=O)c1csc(Br)n1
95

Data request, read-out Activity, for Brc1cscn1
97

Data request, read-out Activity, for Cc1nc(C(=O)O)cs1
92

Data request, read-out Activity, for CCOC(=O)c1csc(N)n1
89

Data request, read-out Activity, for CCOC(=O)c1csc(Br)n1
97

Data request, read-out Activity, for COC(=O)C(=O)Nc1ncc(Br)s1
94

Data request, read-out Activity, for O=C(O)c1csc(-c2ccncc2)n1
96

Data request, read-out Activity, for Brc1cnc(Br)s1
91

----------
# SYSTEM: Replicase polyprotein 1ab (Severe acute respiratory syndrome coronavirus 2)
# EXPERIMENT SUMMARY: Inhibition of recombinant SARS-CoV-2 3CLpro expressed in Escherichia coli NiCo21(DE3) assessed as residual activity at 500 uM using DABCYL-KTSAVLQSGFRKME-EDANS as substrate preincubated for 30 mins in presence of 1mM DTT followed by substrate addition and measured by FRET assay relative to control
EXPERIMENTAL ENDPOINT: Activity (%)
# output: bare number, implied unit %

>  <SAMPLE SMILES>
CNc1nnc(C(F)(F)F)s1

>  <Activity / %>
82.3

$$$$
>  <SAMPLE SMILES>
N#Cc1cnc(Br)s1

>  <Activity / %>
75.5

$$$$
>  <SAMPLE SMILES>
CCOC(=O)c1cnc(Br)s1

>  <Activity / %>
66.4

$$$$
>  <SAMPLE SMILES>
Cc1nc(C(=O)O)cs1

>  <Activity / %>
78.7

$$$$
>  <SAMPLE SMILES>
CC(C)(C)c1csc(N)n1

>  <Activity / %>
79.1

$$$$

Data request, read-out Activity, for Cc1nc(CCl)cs1
90.9

Data request, read-out Activity, for CC(=O)c1nc(C)cs1
78.4

Data request, read-out Activity, for Cc1nnc(N)s1
81.9

Data request, read-out Activity, for Cc1csc(N)n1
82.4

----------
# EXPERIMENT SUMMARY: Redox activity of compound assessed as redox index at 100 uM measured by H2DCFDA assay
# Format: physicochemical
EXPERIMENTAL ENDPOINT: Activity_index
A bare number is all that is needed in reply.

Recorded Activity_index, per entry:
>  <SAMPLE SMILES>
Brc1cscn1

>  <Activity_index>
0.8

$$$$
>  <SAMPLE SMILES>
N#Cc1cnc(N)s1

>  <Activity_index>
1

$$$$
>  <SAMPLE SMILES>
O=C(O)c1csc(Nc2cccc3ncccc23)n1

>  <Activity_index>
1.3

$$$$
>  <SAMPLE SMILES>
Clc1nccs1

>  <Activity_index>
1

$$$$
>  <SAMPLE SMILES>
CNc1nnc(C(F)(F)F)s1

>  <Activity_index>
1.2

$$$$

Data request, read-out Activity_index, for Nc1nc(-c2ccncc2)cs1
1.1

Data request, read-out Activity_index, for O=C(O)Cc1csc(Br)n1
0.9

----------
# SYSTEM: UDP-N-acetylglucosamine 1-carboxyvinyltransferase (Escherichia coli K-12) (UniProt P0A749)
# Sequence (P0A749 whole entry): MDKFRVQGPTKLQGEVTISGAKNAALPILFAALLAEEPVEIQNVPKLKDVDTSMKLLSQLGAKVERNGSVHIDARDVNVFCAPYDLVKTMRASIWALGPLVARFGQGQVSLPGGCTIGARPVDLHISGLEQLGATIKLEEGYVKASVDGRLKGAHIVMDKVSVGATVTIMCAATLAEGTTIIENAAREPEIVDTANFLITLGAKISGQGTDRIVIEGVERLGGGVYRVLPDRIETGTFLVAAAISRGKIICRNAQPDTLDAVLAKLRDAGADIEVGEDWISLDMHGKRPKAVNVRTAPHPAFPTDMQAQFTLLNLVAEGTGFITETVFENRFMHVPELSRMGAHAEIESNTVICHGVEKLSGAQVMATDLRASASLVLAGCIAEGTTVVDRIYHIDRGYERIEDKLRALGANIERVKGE
# EXPERIMENT SUMMARY: Inhibition of recombinant Escherichia coli MurA assessed as residual activity at 500 uM using UDP-N-acetylglucosamine as substrate preincubated for 30 mins in presence of 1 mM DTT followed by substrate addition and measured by malachite green based colorimetric assay relative to control
EXPERIMENTAL ENDPOINT: Activity (%)
# output: bare number, implied unit %

>  <SAMPLE SMILES>
Nc1nc(-c2ccncc2)cs1

>  <Activity, %>
103

$$$$
>  <SAMPLE SMILES>
CCOC(=O)c1cnc(Br)s1

>  <Activity, %>
103

$$$$
>  <SAMPLE SMILES>
CCOC(=O)c1csc(N)n1

>  <Activity, %>
105

$$$$
>  <SAMPLE SMILES>
Nc1ccc(S(=O)(=O)Nc2nccs2)cc1

>  <Activity, %>
100

$$$$
>  <SAMPLE SMILES>
O=C(O)c1scnc1Br

>  <Activity, %>
111

$$$$
>  <SAMPLE SMILES>
Brc1cscn1

>  <Activity, %>
102

$$$$
>  <SAMPLE SMILES>
COC(=O)C(=O)Nc1ncc(Br)s1

>  <Activity, %>
112

$$$$
>  <SAMPLE SMILES>
Nc1ncc(Br)s1

>  <Activity, %>
100

$$$$

Kindly state the measured Activity obtained for N#Cc1cnc(NC(=O)C(=O)O)s1 with UDP-N-acetylglucosamine 1-carboxyvinyltransferase (Escherichia coli K-12) (UniProt P0A749).
114

----------
# Tested on: Mycobacterium tuberculosis
# EXPERIMENT SUMMARY: Inhibition of Mycobacterium tuberculosis MetAP1a assessed as residual activity at 625 uM using L-methionine 7-amido-4-methylcoumarin as fluorogenic substrate and measured by fluorescence based assay
EXPERIMENTAL ENDPOINT: Activity (%)
# output: bare number, implied unit %

>  <MOLECULE>
Cc1csc(N)n1

>  <Activity (%)>
123

$$$$
>  <MOLECULE>
Cc1cnc(Br)s1

>  <Activity (%)>
116

$$$$
>  <MOLECULE>
Nc1nnc(C2CC2)s1

>  <Activity (%)>
92.5

$$$$
>  <MOLECULE>
COC(=O)c1cnc(Br)s1

>  <Activity (%)>
99.2

$$$$
>  <MOLECULE>
COC(=O)CC(=O)Nc1ncc(Br)s1

>  <Activity (%)>
78.2

$$$$
>  <MOLECULE>
COC(=O)CC(=O)Nc1ncc(C#N)s1

>  <Activity (%)>
92.6

$$$$
>  <MOLECULE>
O=C(O)c1nc(Br)cs1

>  <Activity (%)>
111

$$$$
>  <MOLECULE>
Fc1ccc(-c2csc(Br)n2)cc1F

>  <Activity (%)>
84.4

$$$$
>  <MOLECULE>
Cc1nc(Br)sc1C(=O)O

>  <Activity (%)>
43.4

$$$$
>  <MOLECULE>
O=C(O)Cc1csc(Br)n1

>  <Activity (%)>
86.1

$$$$

Data request, read-out Activity, for Cc1cnc(N)s1
118

Data request, read-out Activity, for Cc1nc(C(=O)O)cs1
73.9

----------
# EXPERIMENT SUMMARY: Redox activity of compound assessed as redox index at 10 uM measured by resazurin assay
# Type: physicochemical
EXPERIMENTAL ENDPOINT: Activity_index
A bare number is all that is needed in reply.

Recorded Activity_index, per entry:
>  <SAMPLE SMILES>
O=C(O)Cc1csc(Br)n1

>  <Activity_index>
1

$$$$
>  <SAMPLE SMILES>
O=C(O)c1nc(Br)cs1

>  <Activity_index>
0.9

$$$$

Data request, read-out Activity_index, for Cc1nc(C(=O)O)cs1
1

Data request, read-out Activity_index, for Cc1nc(-c2ccc(C(=O)O)cc2)cs1
1.1

Data request, read-out Activity_index, for COC(=O)C(=O)Nc1ncc(Br)s1
1.1

Data request, read-out Activity_index, for CCOC(=O)c1csc(N)n1
1

Data request, read-out Activity_index, for Nc1ccc(S(=O)(=O)Nc2nccs2)cc1
1

Data request, read-out Activity_index, for Nc1nc(C(=O)O)cs1
1.1

Data request, read-out Activity_index, for Brc1nncs1
0.9

Data request, read-out Activity_index, for CCOC(=O)Cc1csc(Br)n1
0.9

----------
# SYSTEM: UniProt P0A749
# EXPERIMENT SUMMARY: Inhibition of recombinant Escherichia coli MurA assessed as residual activity at 500 uM using UDP-N-acetylglucosamine as substrate and measured by malachite green based colorimetric assay relative to control
// values below are reported Activity
# output: bare number, implied unit %

Recorded Activity, per entry:
>  <SAMPLE SMILES>
N#Cc1cnc(NC(=O)C(=O)O)s1

>  <Activity / %>
112

$$$$
>  <SAMPLE SMILES>
O=C(O)c1csc(-c2ccncc2)n1

>  <Activity / %>
103

$$$$

Data request, read-out Activity, for N#Cc1cnc(NC(=O)CC(=O)O)s1
72.3

Data request, read-out Activity, for CC(=O)c1nc(C)cs1
102
